All figures here come from the supplement of paper PMC9233669.

Tested on: biotinyl-Leu-oxazolone
run.description: self-aminoacylation, catalytic enhancement (BLO) (fold over background); higher = more active; k-Seq, kA / k0A0; sequences stand for … in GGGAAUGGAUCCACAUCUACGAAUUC…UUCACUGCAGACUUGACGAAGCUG
Variants at the floor of the assay were thinned out.
property.measured: self-aminoacylation
Answer field: number only, no words.

Below, 3 sequences whose answers are already recorded.
AGUCACCUCGGUCAUCGGGUG [Fam2.2 aminoacylation ribozyme variant]; 6.23
AUUACCCUGGUCAUCGAGUAC [Fam2.1 aminoacylation ribozyme variant]; 5.94
CAACUUCCAACAAUCGGUCUG [Fam1A.1 aminoacylation ribozyme variant]; 0.985

Input line: So what's the measured self-aminoacylation for this one? CCACACUCUAAGCAAUCGGUC [Fam1B.1 aminoacylation ribozyme variant]
Output line: 0.683

Input line: So what's the measured self-aminoacylation for this one? CUACUUCAAACAAUUGAUCUG [Fam1A.1 aminoacylation ribozyme variant]
Output line: 0.642
